- TARGET_DESC: full-length human PLD1 (Homo sapiens (Human), UniProt Q13393)
- Sequence (Q13393 other isoform, or with tags, fused parts or gaps): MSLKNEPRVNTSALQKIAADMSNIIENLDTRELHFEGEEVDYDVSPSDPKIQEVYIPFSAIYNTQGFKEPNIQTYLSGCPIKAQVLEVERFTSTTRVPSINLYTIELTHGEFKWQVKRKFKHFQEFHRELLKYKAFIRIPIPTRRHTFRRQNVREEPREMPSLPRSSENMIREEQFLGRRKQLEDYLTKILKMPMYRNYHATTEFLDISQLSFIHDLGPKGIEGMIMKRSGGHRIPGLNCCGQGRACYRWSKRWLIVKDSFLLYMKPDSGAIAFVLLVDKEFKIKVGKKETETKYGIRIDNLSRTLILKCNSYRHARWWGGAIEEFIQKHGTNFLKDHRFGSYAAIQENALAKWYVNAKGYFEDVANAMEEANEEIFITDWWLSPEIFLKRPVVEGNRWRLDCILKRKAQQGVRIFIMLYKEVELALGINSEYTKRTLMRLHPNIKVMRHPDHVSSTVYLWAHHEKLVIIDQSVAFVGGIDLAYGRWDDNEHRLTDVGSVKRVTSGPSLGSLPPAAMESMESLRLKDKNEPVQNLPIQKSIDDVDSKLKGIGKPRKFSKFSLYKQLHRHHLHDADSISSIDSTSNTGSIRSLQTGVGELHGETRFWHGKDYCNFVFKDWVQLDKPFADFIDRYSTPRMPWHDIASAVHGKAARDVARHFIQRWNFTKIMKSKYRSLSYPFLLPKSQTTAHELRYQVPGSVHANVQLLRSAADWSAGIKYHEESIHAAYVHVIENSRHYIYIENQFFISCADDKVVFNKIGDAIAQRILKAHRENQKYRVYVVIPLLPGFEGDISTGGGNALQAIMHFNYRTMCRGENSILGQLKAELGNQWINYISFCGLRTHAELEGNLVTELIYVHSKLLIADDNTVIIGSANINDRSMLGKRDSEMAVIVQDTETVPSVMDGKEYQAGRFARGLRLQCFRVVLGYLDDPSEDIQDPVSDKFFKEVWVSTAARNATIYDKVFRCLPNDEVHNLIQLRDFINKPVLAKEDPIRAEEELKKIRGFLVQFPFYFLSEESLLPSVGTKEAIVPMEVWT
- METHOD: Evaluation of human PLD1 enzyme inhibitory activity (Amplex Red / choline oxidase fluorescence)
- Assay type: biochemical
- MEASUREMENT_CONDITIONS: full-length human PLD1 enzyme; read-out: PLD1 IC50
Listed here are compounds together with their documented IC50.
Note: unit µM is implicit; provide only the numeric part.

Some entries whose results are on file:
CPD_SMILES: CC(C)C(=O)N[C@@H](C)C[C@H]1CC[C@]2(CC1)OC(=O)NN=C2c1ccc(F)cc1Br
UNIT_TAG: µM
IC50: 1.65

CPD_SMILES: CNC(=O)C(=O)N[C@@H](C)C[C@H]1CC[C@]2(CC1)OC(=O)NN=C2c1cc(C#N)ccc1Br
UNIT_TAG: µM
IC50: 0.011

CPD_SMILES: C[C@@H](CN1CCC2(CC1)OC(=O)NN=C2c1ccc(C#N)cc1Br)NC(=O)c1cc(Cl)no1
UNIT_TAG: µM
IC50: 0.014

Ask | Request the reported IC50 associated with CNC(=O)C(=O)N[C@@H](C)C[C@H]1CC[C@]2(CC1)OC(=O)NN=C2c1cc(C(=O)N2CC(F)(F)C2)ccc1Br
Reply | 0.018

Ask | Request the reported IC50 associated with C[C@@H](C[C@H]1CC[C@]2(CC1)OC(=O)NN=C2c1ccc(F)cc1Br)NC(=O)c1ccccc1
Reply | 0.013

Ask | Request the reported IC50 associated with [2H]C([2H])([2H])NC(=O)C(=O)N[C@@H](C)CN1CCC2(CC1)OC(=O)NN=C2c1cc(C#N)ccc1Br
Reply | 0.041

Ask | Request the reported IC50 associated with CSc1ccc(C2=NNC(=O)OC23CCN(C[C@H](C)NC(=O)c2cc4cc(F)ccc4o2)CC3)c(Cl)c1
Reply | 0.015
